Biological target: T1, HLA-DR4w4 (DRB1*0401) (human)
T1 construct: Purified HLA class II molecule
Experiment: competition with 125I-labelled probe peptide on purified HLA-DR, gel filtration; IC50 of standard peptide / IC50 of test peptide
Value Type: relative binding ratio (ratio)

binder="ETELVEPLTPSGAMP (also called Her2/neu.693) [HER2/neu peptide ETELVEPLTPSGAMP (position 693)]" value_type="relative binding ratio" meas_value=-0.0025
binder="IKVLRENTSPKANKE (also called Her2/neu.752) [HER2/neu peptide IKVLRENTSPKANKE (position 752)]" value_type="relative binding ratio" meas_value=-0.0032
binder="GTDMKLRLPASPETH (also called Her2/neu.28) [HER2/neu peptide GTDMKLRLPASPETH (position 28)]" value_type="relative binding ratio" meas_value=-0.0025
binder="DMKLRLPASPETHLD (also called Her2/neu.30) [HER2/neu peptide DMKLRLPASPETHLD (position 30)]" value_type="relative binding ratio" meas_value=-0.0025
